meta.source: ChEMBL document CHEMBL6178010

Molecular target: Exportin-1 (Homo sapiens)
Sequence (O14980 whole entry): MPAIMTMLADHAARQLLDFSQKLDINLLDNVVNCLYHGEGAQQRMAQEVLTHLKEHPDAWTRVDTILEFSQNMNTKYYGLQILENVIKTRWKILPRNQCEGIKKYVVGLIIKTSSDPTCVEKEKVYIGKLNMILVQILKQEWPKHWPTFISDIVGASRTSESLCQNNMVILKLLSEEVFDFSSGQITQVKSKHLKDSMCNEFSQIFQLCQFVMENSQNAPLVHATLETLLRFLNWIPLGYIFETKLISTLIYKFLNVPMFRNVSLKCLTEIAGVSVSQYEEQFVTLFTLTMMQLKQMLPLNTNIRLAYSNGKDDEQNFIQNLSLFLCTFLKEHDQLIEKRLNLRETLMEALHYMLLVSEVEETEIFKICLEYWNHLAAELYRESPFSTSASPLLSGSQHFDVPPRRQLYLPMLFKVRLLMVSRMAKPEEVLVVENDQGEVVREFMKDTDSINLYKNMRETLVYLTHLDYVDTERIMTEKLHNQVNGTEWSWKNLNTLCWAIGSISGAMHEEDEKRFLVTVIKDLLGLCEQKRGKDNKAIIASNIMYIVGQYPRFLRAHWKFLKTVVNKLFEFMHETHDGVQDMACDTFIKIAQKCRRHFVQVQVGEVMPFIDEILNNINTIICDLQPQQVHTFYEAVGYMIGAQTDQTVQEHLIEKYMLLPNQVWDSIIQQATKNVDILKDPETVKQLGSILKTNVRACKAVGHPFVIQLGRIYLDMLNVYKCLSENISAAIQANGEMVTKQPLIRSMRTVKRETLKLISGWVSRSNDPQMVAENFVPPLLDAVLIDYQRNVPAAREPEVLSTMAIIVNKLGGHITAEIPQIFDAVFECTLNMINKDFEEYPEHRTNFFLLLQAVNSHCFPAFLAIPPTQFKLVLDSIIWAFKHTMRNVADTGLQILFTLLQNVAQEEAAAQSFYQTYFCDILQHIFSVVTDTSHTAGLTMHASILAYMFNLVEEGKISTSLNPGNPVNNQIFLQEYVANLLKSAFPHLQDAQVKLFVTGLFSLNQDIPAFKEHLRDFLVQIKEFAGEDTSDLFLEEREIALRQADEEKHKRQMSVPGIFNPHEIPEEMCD
Assay: Inhibition of XPO1 in PMA/ionomycin-activated human Jurkat cells expressing IL-2 promoter reporter gene assessed as suppression of IL-2 transcriptional activity incubated for 6 hrs by Bright-Glo Luciferase assay
Measured Property: EC50 (nM)

1. CC1=CC(=O)N(Nc2nc(N3CCCC(F)(F)C3)nn3cccc23)C1=O: 222

1. CO[C@@H]1CCN(c2nc(NN3C(=O)C=C(C)C3=O)ccc2C(F)(F)F)C1
2. CC1=CC(=O)N(Nc2cc(C(F)(F)F)cc(N3CCCC3)n2)C1=O
3. CC1=CC(=O)N(N(C)c2nc(N3CCCC(F)(F)C3)nn3cccc23)C1=O
4. CC1=CC(=O)N(Nc2ccc(F)c(N3CC(F)(F)C3)n2)C1=O
List the 4 entries from lowest EC50 to highest EC50 value. // respond by listing labels in the order requested
2, 1, 4, 3

1. CC1=CC(=O)N(Nc2ccc(C(F)(F)F)c(N3CC(F)(F)C3)n2)C1=O
2. CC1=CC(=O)N(Nc2nc(C3CCCC3)nn3cccc23)C1=O
3. CC1=CC(=O)N(Nc2nc(N(C)CC3CC3)nn3cccc23)C1=O
4. COc1cccc2nc(-c3cccs3)nc(NN3C(=O)C=C(C)C3=O)c12
5. CC1=C(C)C(=O)N(Nc2nc(C(F)(F)F)nn3cccc23)C1=O
Order the 5 compounds from highest to lowest EC50. // respond by listing labels in the order requested
5, 2, 3, 1, 4

I. CO[C@H]1CCN(c2nc(NN3C(=O)C=C(C)C3=O)ccc2C(F)(F)F)C1
II. CC1=CC(=O)N(Nc2nc(N3CC(F)(F)C3)nn3cccc23)C1=O
Sorting ascending by EC50, which comes first: I or II ? Give the chosen item's label as your response.
I
